Biological target: PI3Kδ (Homo sapiens, UniProt O00329)
Construct: purchased Invitrogen (US)
Sequence (O00329 whole entry): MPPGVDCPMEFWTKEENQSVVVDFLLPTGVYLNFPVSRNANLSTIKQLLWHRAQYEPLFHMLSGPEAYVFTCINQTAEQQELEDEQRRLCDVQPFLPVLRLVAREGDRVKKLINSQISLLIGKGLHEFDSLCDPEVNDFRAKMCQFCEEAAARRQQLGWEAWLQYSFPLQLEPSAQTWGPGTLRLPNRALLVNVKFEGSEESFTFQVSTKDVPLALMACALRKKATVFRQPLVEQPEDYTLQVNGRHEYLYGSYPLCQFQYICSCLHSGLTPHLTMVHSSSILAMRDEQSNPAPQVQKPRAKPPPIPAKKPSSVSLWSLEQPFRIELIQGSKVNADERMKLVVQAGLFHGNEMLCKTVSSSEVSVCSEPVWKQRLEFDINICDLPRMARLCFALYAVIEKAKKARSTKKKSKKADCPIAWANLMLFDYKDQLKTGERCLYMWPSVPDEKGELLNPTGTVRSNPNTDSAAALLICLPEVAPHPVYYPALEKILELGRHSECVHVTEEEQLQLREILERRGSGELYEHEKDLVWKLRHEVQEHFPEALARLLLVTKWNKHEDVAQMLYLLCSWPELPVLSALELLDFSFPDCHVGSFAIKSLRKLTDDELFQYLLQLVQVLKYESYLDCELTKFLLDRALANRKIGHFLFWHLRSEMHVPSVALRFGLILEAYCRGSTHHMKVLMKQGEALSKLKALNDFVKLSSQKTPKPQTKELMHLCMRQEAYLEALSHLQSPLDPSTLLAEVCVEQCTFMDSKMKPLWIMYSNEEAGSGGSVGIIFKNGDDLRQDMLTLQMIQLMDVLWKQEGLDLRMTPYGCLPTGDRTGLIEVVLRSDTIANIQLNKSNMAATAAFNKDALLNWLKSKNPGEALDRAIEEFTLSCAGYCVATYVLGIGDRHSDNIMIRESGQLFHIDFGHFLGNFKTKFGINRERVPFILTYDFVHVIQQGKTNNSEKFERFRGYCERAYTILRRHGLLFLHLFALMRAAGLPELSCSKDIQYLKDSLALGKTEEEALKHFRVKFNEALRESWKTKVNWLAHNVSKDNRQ
Sequence (P27986 whole entry partner): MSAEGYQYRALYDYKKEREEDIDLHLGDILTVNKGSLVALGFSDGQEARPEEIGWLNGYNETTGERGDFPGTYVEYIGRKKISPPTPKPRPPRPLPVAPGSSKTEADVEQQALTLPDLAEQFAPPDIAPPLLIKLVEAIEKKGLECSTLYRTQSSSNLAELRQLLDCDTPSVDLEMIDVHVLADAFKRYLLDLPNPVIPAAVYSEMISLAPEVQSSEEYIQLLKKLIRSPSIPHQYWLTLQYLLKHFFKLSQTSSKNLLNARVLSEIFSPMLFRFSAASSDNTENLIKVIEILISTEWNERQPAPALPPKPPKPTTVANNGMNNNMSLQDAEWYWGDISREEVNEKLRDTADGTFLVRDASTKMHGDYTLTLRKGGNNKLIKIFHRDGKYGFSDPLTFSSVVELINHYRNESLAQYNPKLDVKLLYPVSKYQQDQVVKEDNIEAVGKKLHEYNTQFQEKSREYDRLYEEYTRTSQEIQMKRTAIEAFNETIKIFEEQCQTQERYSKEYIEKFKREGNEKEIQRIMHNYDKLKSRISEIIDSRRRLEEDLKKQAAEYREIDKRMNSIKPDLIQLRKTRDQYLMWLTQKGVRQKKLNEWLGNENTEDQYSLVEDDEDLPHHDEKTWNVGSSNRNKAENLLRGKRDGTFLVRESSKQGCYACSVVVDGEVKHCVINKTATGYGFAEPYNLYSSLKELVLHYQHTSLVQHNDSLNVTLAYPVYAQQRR
Assay: In vitro enzyme activity (ADP-Glo) against PI3Kδ
Assay type: biochemical
Settings: Table 2; ATP 50 μM, PIP2:PS 50 μM
Sorting guide: entries reporting IC50 beneath 0.03 µM go in the TRUE pile, the rest go in the FALSE pile.

Field: example entries. Status: answers known.
>>> answerlabel("COc1ccc(-c2nn(C(C)c3nc4cccc(F)c4c(=O)n3C3CCCC3)c3ncnc(N)c23)cc1 (stereo not drawn)")
"FALSE"
>>> answerlabel("COc1ccc(-c2nn(C(C)c3nc4cccc(F)c4c(=O)n3C3CCC3)c3ncnc(N)c23)cn1 (stereo not drawn)")
"FALSE"
>>> answerlabel("CCC(c1nc2cc(F)c(F)cc2c(=O)n1C1CC1)n1nc(-c2ccc(OC)c(F)c2)c2c(N)ncnc21 (stereo not drawn)")
"FALSE"
>>> answerlabel("CCC(c1nc2ccccc2c(=O)n1C1CC1)n1nc(-c2ccc(OC)c(F)c2)c2c(N)ncnc21 (stereo not drawn)")
"TRUE"
>>> answerlabel("COc1ccc(-c2nn(C(C)c3nc4ccccc4c(=O)n3C3CCC3)c3ncnc(N)c23)cc1OC (stereo not drawn)")
"TRUE"
>>> answerlabel("CC(c1nc2cccc(F)c2c(=O)n1C1CCCC1)n1nc(-c2cccc(F)c2)c2c(N)ncnc21 (stereo not drawn)")
"FALSE"
>>> answerlabel("CC(c1nc2cccc(F)c2c(=O)n1C1CCC1)n1nc(-c2ccc3c(c2)OCO3)c2c(N)ncnc21 (stereo not drawn)")
"TRUE"
>>> answerlabel("COc1ccc(-c2nn(C(C)c3nc4cccc(F)c4c(=O)n3C3CCC3)c3ncnc(N)c23)cc1F (stereo not drawn)")
"TRUE"
>>> answerlabel("COc1ccc(-c2nn(C(C)c3nc4ccc(F)cc4c(=O)n3C3CC3)c3ncnc(N)c23)cc1 (stereo not drawn)")
"TRUE"
>>> answerlabel("CCC(c1nc2cccc(F)c2c(=O)n1C1CC1)n1nc(-c2ccc(OC)c(OC)c2)c2c(N)ncnc21 (stereo not drawn)")
"FALSE"

Is it true that IC50 reported for CC[C@H](c1nc2cccc(F)c2c(=O)n1C1CC1)n1nc(-c2ccc(OC)c(F)c2)c2c(N)ncnc21 is less than 0.03 µM?
FALSE

Is it true that IC50 reported for COc1ccc(-c2nn(C(C)c3nc4ccc(F)cc4c(=O)n3C3CC3)c3ncnc(N)c23)cc1F (stereo not drawn) is less than 0.03 µM?
TRUE

Is it true that IC50 reported for COc1ccc(-c2nn(C(C)c3nc4cccc(F)c4c(=O)n3C3CCC3)c3ncnc(N)c23)cc1OC (stereo not drawn) is less than 0.03 µM?
TRUE

Is it true that IC50 reported for COc1ccc(-c2nn(C(C)c3nc4cccc(F)c4c(=O)n3C3CC3)c3ncnc(N)c23)cc1F (stereo not drawn) is less than 0.03 µM?
TRUE

Is it true that IC50 reported for COc1ccc(-c2nn(C(C)c3nc4c(Cl)cccc4c(=O)n3C3CCC3)c3ncnc(N)c23)cc1F (stereo not drawn) is less than 0.03 µM?
FALSE

###

Target: PI3Kα (Homo sapiens)
Construct: purchased Invitrogen (US)
Sequence (P42336 whole entry): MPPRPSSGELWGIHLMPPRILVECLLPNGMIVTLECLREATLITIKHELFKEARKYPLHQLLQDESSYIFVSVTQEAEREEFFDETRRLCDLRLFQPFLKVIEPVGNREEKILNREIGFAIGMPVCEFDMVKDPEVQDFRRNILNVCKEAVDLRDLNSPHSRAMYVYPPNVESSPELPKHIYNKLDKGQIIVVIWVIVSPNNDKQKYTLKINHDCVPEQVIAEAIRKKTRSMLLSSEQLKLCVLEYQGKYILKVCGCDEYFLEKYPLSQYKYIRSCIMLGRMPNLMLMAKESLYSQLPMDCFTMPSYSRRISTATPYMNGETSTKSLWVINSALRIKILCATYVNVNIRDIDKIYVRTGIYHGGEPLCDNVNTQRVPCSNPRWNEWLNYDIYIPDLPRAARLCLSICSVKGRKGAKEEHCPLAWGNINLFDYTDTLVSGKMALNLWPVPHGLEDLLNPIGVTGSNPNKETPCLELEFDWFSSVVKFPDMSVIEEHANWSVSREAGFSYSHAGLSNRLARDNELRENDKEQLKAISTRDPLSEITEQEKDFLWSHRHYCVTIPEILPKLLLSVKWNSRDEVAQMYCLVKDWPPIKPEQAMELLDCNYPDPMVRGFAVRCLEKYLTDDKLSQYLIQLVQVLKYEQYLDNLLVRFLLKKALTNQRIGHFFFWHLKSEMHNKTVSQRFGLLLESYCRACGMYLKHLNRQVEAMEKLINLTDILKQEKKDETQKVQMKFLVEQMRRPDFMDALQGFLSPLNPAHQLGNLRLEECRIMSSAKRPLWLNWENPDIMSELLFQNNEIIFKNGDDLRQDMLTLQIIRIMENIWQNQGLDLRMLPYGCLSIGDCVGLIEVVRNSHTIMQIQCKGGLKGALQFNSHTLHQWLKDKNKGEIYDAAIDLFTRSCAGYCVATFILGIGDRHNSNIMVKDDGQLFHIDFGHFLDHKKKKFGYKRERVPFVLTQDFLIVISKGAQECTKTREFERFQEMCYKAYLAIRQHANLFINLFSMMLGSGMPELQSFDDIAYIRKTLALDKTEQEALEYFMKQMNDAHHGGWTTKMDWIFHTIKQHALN
Sequence (P27986 whole entry partner): as the sequence (P27986 whole entry partner) above
Experiment: In vitro enzyme activity (ADP-Glo) against PI3Kα
Assay type: biochemical
Conditions: Table 2; ATP 10 μM, PIP2:PS 50 μM
Sorting guide: entries reporting IC50 beneath 2 µM go in the Criterion met pile, the rest go in the Criterion not met pile.

Field: example entries. Status: answers known.
>>> answerlabel("COc1ccc(-c2nn(C(C)c3nc4ccc(F)cc4c(=O)n3C3CC3)c3ncnc(N)c23)cc1F (stereo not shown)")
"Criterion met"
>>> answerlabel("COc1ccc(-c2nn(C(C)c3nc4cccc(F)c4c(=O)n3C3CC3)c3ncnc(N)c23)cc1F (stereo not shown)")
"Criterion met"
>>> answerlabel("COc1ccc(-c2nn(C(C)c3nc4ccc(F)cc4c(=O)n3C3CC3)c3ncnc(N)c23)cc1 (stereo not shown)")
"Criterion not met"
>>> answerlabel("CCC(c1nc2cccc(F)c2c(=O)n1C1CC1)n1nc(-c2ccc(OC)c(F)c2)c2c(N)ncnc21 (stereo not shown)")
"Criterion not met"
>>> answerlabel("COc1ccc(-c2nn(C(C)c3nc4cccc(F)c4c(=O)n3C3CCC3)c3ncnc(N)c23)cc1F (stereo not shown)")
"Criterion not met"

Is it true that IC50 reported for COc1ccc(-c2nn(C(C)c3nc4ccccc4c(=O)n3C3CCC3)c3ncnc(N)c23)cc1 (stereo not shown) is less than 2 µM?
Criterion not met

Is it true that IC50 reported for COc1ccc(-c2nn(C(C)c3nc4ccccc4c(=O)n3C3CCC3)c3ncnc(N)c23)cc1OC (stereo not shown) is less than 2 µM?
Criterion not met

###

Molecular target: PI3Kβ (Homo sapiens)
Construct: purchased sigma (US)
Test: In vitro enzyme activity (ADP-Glo) against PI3Kβ
Assay type: biochemical
Settings: Table 2; ATP 10 μM, PIP2:PS 50 μM; read-out: IC50 against PI3Kβ
// log10 IC50 lookup, one value per entry
The common logarithm of IC50 in µM is what is listed.

Study these solved cases before continuing.
>>> experimentalvalue("COc1ccc(-c2nn(Cc3nc4cccc(F)c4c(=O)n3C3CC3)c3ncnc(N)c23)cc1F [Compound 6]")
-0.28
>>> experimentalvalue("CCC(c1nc2cccc(F)c2c(=O)n1C1CC1)n1nc(-c2ccc(OC)c(F)c2)c2c(N)ncnc21 (centres unmarked) [Compound 9]")
0.06
>>> experimentalvalue("COc1ccc(-c2nn(C(C)c3nc4cccc(F)c4c(=O)n3C3CCC3)c3ncnc(N)c23)cc1 (centres unmarked) [Compound 19]")
-0.26

Proceed to the following item.
Query log10 IC50 for COc1ccc(-c2nn(C(C)c3nc4cccc(F)c4c(=O)n3C3CCC3)c3ncnc(N)c23)cc1F (centres unmarked) [Compound 1]
0.47

###

// IC50 lookup, one value per entry
Target: PI3Kβ (Homo sapiens, UniProt P42338)
Construct: purchased sigma (US)
Sequence (P42338 whole entry): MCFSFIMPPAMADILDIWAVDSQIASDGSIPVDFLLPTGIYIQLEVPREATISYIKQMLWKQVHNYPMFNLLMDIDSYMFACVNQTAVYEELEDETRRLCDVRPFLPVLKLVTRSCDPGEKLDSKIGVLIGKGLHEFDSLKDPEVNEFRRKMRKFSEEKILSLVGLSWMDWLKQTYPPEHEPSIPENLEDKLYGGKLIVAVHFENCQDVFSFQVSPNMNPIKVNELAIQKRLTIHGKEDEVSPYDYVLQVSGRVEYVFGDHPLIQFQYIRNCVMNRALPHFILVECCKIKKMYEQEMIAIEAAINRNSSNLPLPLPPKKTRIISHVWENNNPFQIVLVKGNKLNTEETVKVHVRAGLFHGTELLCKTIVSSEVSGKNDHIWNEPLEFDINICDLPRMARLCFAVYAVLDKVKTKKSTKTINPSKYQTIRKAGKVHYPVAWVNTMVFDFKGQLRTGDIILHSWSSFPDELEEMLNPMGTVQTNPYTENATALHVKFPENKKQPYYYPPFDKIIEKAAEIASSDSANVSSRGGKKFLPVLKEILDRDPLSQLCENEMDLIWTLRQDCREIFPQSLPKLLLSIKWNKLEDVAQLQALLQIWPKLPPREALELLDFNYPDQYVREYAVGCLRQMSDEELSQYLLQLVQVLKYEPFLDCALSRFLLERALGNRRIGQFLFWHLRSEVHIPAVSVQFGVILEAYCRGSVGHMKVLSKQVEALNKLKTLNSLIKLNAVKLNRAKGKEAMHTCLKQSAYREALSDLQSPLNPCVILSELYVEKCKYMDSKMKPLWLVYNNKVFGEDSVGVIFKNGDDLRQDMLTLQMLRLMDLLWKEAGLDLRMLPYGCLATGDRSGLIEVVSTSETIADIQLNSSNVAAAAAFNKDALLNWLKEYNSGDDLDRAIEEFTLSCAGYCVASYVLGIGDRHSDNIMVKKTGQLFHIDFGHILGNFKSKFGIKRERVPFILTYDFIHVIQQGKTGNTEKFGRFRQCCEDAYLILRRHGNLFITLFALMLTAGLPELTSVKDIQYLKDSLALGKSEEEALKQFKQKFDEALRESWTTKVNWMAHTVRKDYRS
Sequence (P27986 whole entry partner): as the sequence (P27986 whole entry partner) above
Test: In vitro enzyme activity (ADP-Glo) against PI3Kβ
Format: biochemical
Details: Table 2; ATP 10 μM, PIP2:PS 50 μM; read-out: IC50 against PI3Kβ
# output: bare number, implied unit µM

Study these solved cases before continuing.
>>> experimentalvalue("COc1ccc(-c2nn(C(C)c3nc4ccccc4c(=O)n3C3CCC3)c3ncnc(N)c23)cc1 (stereo not shown)")
3.28
>>> experimentalvalue("COc1ccc(-c2nn(C(C)c3nc4ccccc4c(=O)n3C3CCC3)c3ncnc(N)c23)cc1OC (stereo not shown)")
0.581
>>> experimentalvalue("COc1ccc(-c2nn(C(C)c3nc4cccc(F)c4c(=O)n3C3CC3)c3ncnc(N)c23)cc1F (stereo not shown)")
1.3

Proceed to the following item.
Query IC50 for CC[C@@H](c1nc2cccc(F)c2c(=O)n1C1CC1)n1nc(-c2ccc(OC)c(F)c2)c2c(N)ncnc21
0.79

###

Target: PI3Kγ (Homo sapiens, UniProt P48736)
Construct: purchased Invitrogen (US)
Sequence (P48736 whole entry): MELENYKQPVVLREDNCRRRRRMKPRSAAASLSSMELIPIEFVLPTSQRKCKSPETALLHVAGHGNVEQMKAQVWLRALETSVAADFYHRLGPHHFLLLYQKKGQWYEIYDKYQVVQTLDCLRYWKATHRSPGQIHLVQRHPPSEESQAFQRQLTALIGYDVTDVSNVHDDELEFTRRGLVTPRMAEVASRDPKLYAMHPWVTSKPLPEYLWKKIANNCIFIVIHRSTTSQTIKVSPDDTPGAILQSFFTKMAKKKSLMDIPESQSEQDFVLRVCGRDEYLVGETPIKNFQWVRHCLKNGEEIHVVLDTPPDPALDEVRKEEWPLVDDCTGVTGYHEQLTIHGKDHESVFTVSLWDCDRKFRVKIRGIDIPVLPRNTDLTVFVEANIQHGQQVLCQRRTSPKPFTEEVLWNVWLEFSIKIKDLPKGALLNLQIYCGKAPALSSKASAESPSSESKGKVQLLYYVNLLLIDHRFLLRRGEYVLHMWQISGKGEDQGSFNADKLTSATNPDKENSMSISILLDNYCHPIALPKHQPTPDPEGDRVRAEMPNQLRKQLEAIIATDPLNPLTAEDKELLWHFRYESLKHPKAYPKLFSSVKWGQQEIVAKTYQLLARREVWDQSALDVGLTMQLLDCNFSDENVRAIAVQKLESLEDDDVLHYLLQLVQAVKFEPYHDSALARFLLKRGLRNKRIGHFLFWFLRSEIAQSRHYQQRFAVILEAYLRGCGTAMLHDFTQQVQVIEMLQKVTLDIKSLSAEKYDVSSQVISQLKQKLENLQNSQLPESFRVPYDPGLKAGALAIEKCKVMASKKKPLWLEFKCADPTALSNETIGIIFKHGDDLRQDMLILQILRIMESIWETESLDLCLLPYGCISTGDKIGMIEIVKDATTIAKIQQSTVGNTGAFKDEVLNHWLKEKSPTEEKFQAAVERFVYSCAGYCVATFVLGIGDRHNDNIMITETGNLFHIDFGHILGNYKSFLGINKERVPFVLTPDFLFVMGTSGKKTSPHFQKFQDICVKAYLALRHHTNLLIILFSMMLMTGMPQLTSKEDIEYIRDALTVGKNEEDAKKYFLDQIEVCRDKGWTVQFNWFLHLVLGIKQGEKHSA
Test: In vitro enzyme activity (ADP-Glo) against PI3Kγ
Type: biochemical
Conditions: Table 2; ATP 50 μM, PIP2:PS 50 μM; read-out: IC50 against PI3Kγ
Recorded IC50 split into classes lower level: < 0.3 µM; middle level: ≥ 0.3 µM and < 0.7 µM; upper level: ≥ 0.7 µM

>>> answerlabel("COc1ccc(-c2nn(C(C)c3nc4cccc(F)c4c(=O)n3C3CCC3)c3ncnc(N)c23)cc1OC (stereo not drawn) [Compound 27]")
"middle level"
>>> answerlabel("COc1ccc(-c2nn(C(C)c3nc4ccc(F)cc4c(=O)n3C3CC3)c3ncnc(N)c23)cc1 (stereo not drawn) [Compound 42]")
"middle level"
>>> answerlabel("CC[C@@H](c1nc2cccc(F)c2c(=O)n1C1CC1)n1nc(-c2ccc(OC)c(F)c2)c2c(N)ncnc21 [Compound 81]")
"middle level"

Band of COc1ccc(-c2nn(C(C)c3nc4ccccc4c(=O)n3C3CCC3)c3ncnc(N)c23)cc1 (stereo not drawn) [Compound 37] ?
upper level

Band of COc1ccc(-c2nn(C(C)c3nc4cccc(F)c4c(=O)n3C3CC3)c3ncnc(N)c23)cc1F (stereo not drawn) [Compound 8] ?
lower level

Band of COc1ccc(-c2nn(C(C)c3nc4ccccc4c(=O)n3C3CCC3)c3ncnc(N)c23)cc1OC (stereo not drawn) [Compound 38] ?
lower level

Band of COc1ccc(-c2nn(C(C)c3nc4cccc(F)c4c(=O)n3C3CCCC3)c3ncnc(N)c23)cc1F (stereo not drawn) [Compound 5] ?
upper level

###

Target: PI3Kβ (Homo sapiens)
Construct: purchased sigma (US)
Experiment: In vitro enzyme activity (ADP-Glo) against PI3Kβ
Format: biochemical
Conditions: Table 3; ATP 10 μM, PIP2:PS 50 μM; read-out: IC50 PIK3β
quantityMeasured: IC50

Provide measured IC50 on PI3Kβ (Homo sapiens) for CC(C)Oc1ccc(-c2nn([C@@H](C)c3oc4ccc(F)cc4c(=O)c3-c3cccc(F)c3)c3ncnc(N)c23)cc1F [TGR1202, reference compound] please.
> 10 µM
